Biological target: recombinant Mcl-1 (residues 172-327) (Homo sapiens (Human), UniProt Q07820)
Sequence (Q07820 172-327): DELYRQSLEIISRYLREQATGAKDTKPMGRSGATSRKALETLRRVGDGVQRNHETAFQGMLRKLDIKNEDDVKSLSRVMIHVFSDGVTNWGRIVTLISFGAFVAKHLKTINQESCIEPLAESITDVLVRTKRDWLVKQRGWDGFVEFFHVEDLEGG
Assay: Bak peptide binding assay, fluorescence polarization anisotropy competition (FITC-Bak), Mcl-1;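 further: displacement of labeled Bak peptide read by fluorescence anisotropy, 10-point threefold dilutions from 20 µM top dose in 5% DMSO, 90 min incubation at room temperature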
Details: Table 3, binned ranges; FITC-Bak peptide 10 nM, Mcl-1 14 nM; read-out: Ki for inhibition of Mcl-1
Assign Ki to each entry below.

Exam item: Please state recorded Ki (tested on recombinant Mcl-1 (residues 172-327) (Homo sapiens (Human), UniProt Q07820)) of Cc1cc(OCCCn2cc(CC(=O)NS(C)(=O)=O)c3ccccc32)cc(C)c1Cl [Example 4]
Marked response: 1 to 9.99 µM

Exam item: Same question for Cc1cc(OCCCc2c(C#N)n(CC(=O)NS(C)(=O)=O)c3ccccc23)cc(C)c1Cl [Example 50] please.
Marked response: 1 to 9.99 µM

Exam item: Same question for Cc1cc(OCCCc2cn(CC(=O)O)c3cccc(Cl)c23)cc(C)c1Cl [Example 9] please.
Marked response: 0.501 to 0.999 µM

Exam item: Same question for Cc1cc(OCCCc2c(C)n(CCC(=O)NS(=O)(=O)c3cccc([N+](=O)[O-])c3)c3c(-c4c(C)nn(C)c4C)cccc23)cc(C)c1Cl [Example 92] please.
Marked response: ≤ 0.1 µM
